test system: HT29 colon; assay: NCI-60 one-dose screen, 48 h; conditions: 10 µM unless noted
The panel holds about 83,000 compounds, 20% with a hit somewhere; the sample as a whole holds those more often. Active and inactive are the calls of the source. Rule for the calls: active = growth percent below 10; inactive = the rest.
Please reply with one of these outcomes: T for active, F for inactive

1. CCN1C(=O)N(CC)C2Nn3c(s/c(=C\c4ccc([N+](=O)[O-])cc4)c3=O)=NC21 (stereo unspecified) = F
2. CCOC(=O)CCN(C(=O)Nc1ccccc1)C1CCCCC1 = F
3. O=C1CSC(c2c(Cl)cccc2Cl)N1c1nc(Cl)cc(=O)[nH]1 (stereo unspecified) = F
4. Brc1c[n+](Cc2ccc3ccccc3c2)cn1Cc1ccc2ccccc2c1 = T
5. NCCCNc1nc2ccc(Cl)cc2c2c(=O)c3cc(F)ccc3sc12 = T

Check the results log: what was the call for COc1ccc(C(Cc2ccccc2)NCCN2CCOCC2)cc1 (stereo unspecified) ?
F

Could you please tell me the result logged for "COC(=O)c1ccc2[nH]c(O)c(C(=Nc3ccc(N(C)C(=O)CN4CCN(C)CC4)cc3)c3ccccc3)c2c1" in this assay?
F

* * *

test system: NCI-H23 lung; assay: NCI-60 one-dose screen, 48 h (100 = growth as untreated, 0 = no growth, -100 = all killed); details: 10 µM unless noted
Compounds without any hit were thinned out: in the full panel of roughly 83,000, 20% have a hit.
assay_endpoint: growth (%)
The figure you give is taken to be in %; do not add the unit.

Look over these answered cases.
1) CC(=O)CC(c1cccs1)c1c(-c2ccccc2)[nH]c2ccccc12 (stereo unspecified) = 66
2) c1ccc(Cc2nn3cc(-c4ccccc4)nc3s2)cc1 = 97.8
3) CN(C)CCCNc1nc2ccccc2c2c(=O)c3cc(F)ccc3sc12 = 70.6
4) Cc1cc(Cl)ccc1NS(=O)(=O)c1ccc(-c2cnc(C3CC3)o2)cc1 = 31.1
5) COc1ccc2c(c1)/C(=C/c1sc(=S)n(Cc3ccco3)c1O)C=N2 = 51
6) OC(COc1ccccc1)CN1CCN(c2ccc(Cl)cc2)CC1 (stereo unspecified) = 95
7) N#Cc1c(-c2ccc(Cl)cc2)nc2c(c(-c3ccccc3)nn2-c2ccccc2)c1-c1ccc(O)cc1 = 49
8) NS(=O)(=O)c1ccc(-n2nc(C(=O)N/N=C\c3ccc(F)cc3)cc2-c2ccc(Br)cc2)cc1 = 83.9
9) O=C(Cc1ccc2c(c1)OCCO2)Nc1nc2ccc(F)cc2s1 = 87.1
10) Cc1cc2[nH]c(=O)c3c4ncccc4cn3c2cc1C = 70

Value (growth, NCI-H23 lung) for record CC1(C)C2CC1C1(/C=N/NC(N)=S)C(C2)C(C#N)(C#N)C1(C#N)C#N (stereo unspecified) = 89.4

* * *

tested on: NCI-H322M lung; assay: NCI-60 one-dose screen, 48 h (100 = growth as untreated, 0 = no growth, -100 = all killed); settings: 10 µM unless noted
About 83,000 compounds went through this panel and 20% of them were active in at least one assay; those are over-represented in the sample as a whole.
Below is a list of entries, each paired with its recorded growth value.
Give the value, in units of %, as a plain number.

Below, 5 compounds whose answers are already recorded.
1. COc1ccc(C(Cc2ccccc2)NCCN2CCOCC2)cc1 (stereo not drawn) = 95.7
2. N#Cc1c(Nc2cccc(Cl)c2)sc(C(=O)c2cc3cc(Cl)ccc3o2)c1N = 113
3. Cc1cc(=O)oc2cc(OC(=O)CN3CCN(C)CC3)ccc12 = 105
4. COc1ccc(-c2cnc3ccccc3n2)cc1 = 95.2
5. COc1cccc(-c2nc(-c3ccc(NC(=O)OC(C)C)cc3)[nH]c2-c2ccnc(Br)c2)c1 = 35.4

// growth value for "Cc1ccc(C(=O)N/N=C/c2cccc([N+](=O)[O-])c2)cn1" : 97.1

Summary for this compound, CC1=C([Se]CC(OC(=O)[C@@H](CSSC(C)(C)C)NC(=O)OC(C)(C)C)C(=O)NC(C)(C)C)C(=O)c2ccccc2C1=O (stereo partly drawn) : growth is -73.6

Noted for "NCCCNc1nc2ccc(Cl)cc2c2c(=O)c3cc(F)ccc3sc12" : its growth reads 74.9

Lab note: c1cc2nc(-c3cn[nH]c3)c3c(c2cc1-c1cn[nH]c1)C1CCC3C1 (stereo not drawn) gave growth of 75

Form: compound = CC1CN(C2CCCCC2)C(=S)N(c2ccccc2)C1=O (stereo not drawn) ; growth = 107

Field growth (entry "O=C1/C(=C/c2ccc(F)cc2)Sc2c(Br)cccc21" ) reads 72.6

* * *

test system: ACHN renal; assay: NCI-60 one-dose screen, 48 h (100 = growth as untreated, 0 = no growth, -100 = all killed); conditions: 10 µM unless noted
Compounds without any hit were thinned out: in the full panel of roughly 83,000, 20% have a hit.
assay_endpoint: growth (%)
Hi! Could you send only the number? It should be in %, unit omitted.

1. CC(=O)CC(c1cccs1)c1c(-c2ccccc2)[nH]c2ccccc12 (stereo not given) = 89.9

The recorded growth for Cc1cccc2c3c(sc12)C(c1ccc(F)cc1)C(C#N)=C(N)O3 (stereo not given) is 24.8

Summary for this compound, CN1C(=O)N(C)C2Nn3c(s/c(=C\c4ccccc4)c3=O)=NC21 (stereo not given) : growth is 97.8

Item: "O=C1c2cccc3cccc(c23)C(=O)N1N1C(=O)c2cccc3c(NC4CCCCC4)ccc(c23)C1=O" | growth: 92.2

So for CC(=O)CC(c1ccccc1)c1c(C)[nH]c2ccccc12 (stereo not given) , the logged growth turned out to be 92.8

GET /value?item= "N/C(=N\c1nc2ccccc2s1)NC(=O)Nc1cccc2ccccc12" &field=growth returns 42.1

// growth lookup, compound = "NCCCNc1nc2ccccc2c2c(=O)c3cc(C(F)(F)F)ccc3sc12" , result: -10.8

The measured growth associated with "COc1cccc(/C=C2\C=C(c3ccccc3)N(Cc3ccccc3)C2=O)c1" reads 48

For reference, reported growth for "COc1ccc(C(=S)N2CCN(c3cccc(C)c3)CC2)cc1OC" stands at 79.7

What the record says about "C=C1C(=O)O[C@H]2[C@H]1CC/C(COC(=O)NCCOCCOCC(=O)Nc1ccc(OC)c(C(N)=O)c1O)=C\CC[C@@]1(C)O[C@@H]21" : growth is 40.8

* * *

tested on: SW-620 colon; test: NCI-60 one-dose screen, 48 h; conditions: 10 µM unless noted
The panel holds about 83,000 compounds, 20% with a hit somewhere; the sample as a whole holds those more often. Active and inactive are the calls of the source. Rule for the calls: active = growth percent below 10; inactive = the rest.
Lab note: assign the record to one of active, inactive

Illustrative cases are given below, each with its answer.
1) COc1ccc(C(=O)COC(=O)[C@H](C[Se][Se]C[C@H](NC(=O)c2ccc(Br)cc2F)C(=O)OCC(=O)c2ccc(OC)cc2)NC(=O)c2ccc(Br)cc2F)cc1 = active
2) O=[N+]([O-])c1ccc(Oc2nc(Nc3ccc(O[C@H]4CO[C@H]5[C@@H]4OC[C@@H]5O)c(Cl)c3)ncc2F)c(Cl)c1 = inactive
3) Cc1nc2ccccc2n1CC1C(=O)NC(=O)NC1=O = inactive
4) COc1cc(C(=O)c2cnc(-c3c[nH]c4cccc(C)c34)[nH]2)cc(OC)c1OC = inactive
5) N#Cc1c(-c2ccccc2)nc(SCC(=O)Nc2nc(-c3ccc(Cl)cc3)cs2)[nH]c1=O = inactive

Assay result, entry "CCOC(=O)NCCc1ccccc1" — outcome?
inactive

Which outcome was entered for the compound "C=C1C(=O)O[C@H]2[C@H]1CC/C(COC(=O)NCCOCCOCC(=O)Nc1ccc(OC)c(C(N)=O)c1O)=C\CC[C@@]1(C)O[C@@H]21" in this test?
inactive

// outcome(item) with item = "COc1cccc(-c2nn(-c3ccccc3)cc2-c2ccnc(N3CCOCC3)c2)c1"
inactive

* * *

system: BT-549 breast; assay: NCI-60 one-dose screen, 48 h (100 = growth as untreated, 0 = no growth, -100 = all killed); settings: 10 µM unless noted
This is part of a sample that, as a whole, favours compounds with a hit. Of some 83,000 tested, about 20% had one in any assay.
Measured growth of individual entries
Just the number in %, nothing appended.

Completed entries (count: 3):
1) CCCCCCCNC(=O)CCCNc1ncnc2c1ncn2-c1cccc(C(C)O)c1 (stereo unspecified) = 93.5
2) CN1CCN(c2ccc(-c3cc4c(Nc5ccc(F)c(Cl)c5)ncnn4c3)cn2)CC1 = 105
3) CCC12CCC[N+]3([O-])CCC4(C(=Nc5ccccc54)C(O)(C(=O)OC)C1)C23 (stereo unspecified) = 102

"COc1cc(C(=O)c2cnc(-c3cccc4[nH]ccc34)[nH]2)cc(OC)c1OC" has a reported growth of 40.2

// sample "CN1CCN(Cc2ccc(NC(=O)c3ccc(C(C)(C)C)c(C#Cc4cnc5cccnn45)c3)cc2C(F)(F)F)CC1" , its growth was 88.5

The compound "CCCCN(C)N=Nc1ccc(C(N)=O)cc1" showed growth equal to 112

Reported growth ( C=C(C)C1CCC2(C)OC2C1 (stereo unspecified) ) = 99.3

Summary for this compound, "COc1ccc2sc3c(NCCCNCCO)nc4ccccc4c3c(=O)c2c1" : growth is 81.7

Measured growth of "COc1ccc(C(=O)C[C@]2(O)C(=O)Nc3c(Cl)ccc(Cl)c32)cc1" : 49.8

Noted for "Cc1[nH]c(C(=O)Nc2ccc(C(=O)N3CCNCC3)cc2OC(C)C)c(Cl)c1Cl" : its growth reads 93

Entry "Cc1ccc(C(=O)N/N=C/c2cccc(Oc3ccccc3)c2)cn1" ; growth = 38.1
